Measured values drawn from paper PMC11242946 for this set.

biological target: T1, human ACE2 protein (human, UniProt Q9BYF1 18-740); assay: adsorption isotherm on protein-coupled resin (depletion, micro-BCA); details: both partners purified
T1 construct: No catalogue number is printed; also called angiotensin-converting enzyme-2
T1 sequence (Q9BYF1 18-740): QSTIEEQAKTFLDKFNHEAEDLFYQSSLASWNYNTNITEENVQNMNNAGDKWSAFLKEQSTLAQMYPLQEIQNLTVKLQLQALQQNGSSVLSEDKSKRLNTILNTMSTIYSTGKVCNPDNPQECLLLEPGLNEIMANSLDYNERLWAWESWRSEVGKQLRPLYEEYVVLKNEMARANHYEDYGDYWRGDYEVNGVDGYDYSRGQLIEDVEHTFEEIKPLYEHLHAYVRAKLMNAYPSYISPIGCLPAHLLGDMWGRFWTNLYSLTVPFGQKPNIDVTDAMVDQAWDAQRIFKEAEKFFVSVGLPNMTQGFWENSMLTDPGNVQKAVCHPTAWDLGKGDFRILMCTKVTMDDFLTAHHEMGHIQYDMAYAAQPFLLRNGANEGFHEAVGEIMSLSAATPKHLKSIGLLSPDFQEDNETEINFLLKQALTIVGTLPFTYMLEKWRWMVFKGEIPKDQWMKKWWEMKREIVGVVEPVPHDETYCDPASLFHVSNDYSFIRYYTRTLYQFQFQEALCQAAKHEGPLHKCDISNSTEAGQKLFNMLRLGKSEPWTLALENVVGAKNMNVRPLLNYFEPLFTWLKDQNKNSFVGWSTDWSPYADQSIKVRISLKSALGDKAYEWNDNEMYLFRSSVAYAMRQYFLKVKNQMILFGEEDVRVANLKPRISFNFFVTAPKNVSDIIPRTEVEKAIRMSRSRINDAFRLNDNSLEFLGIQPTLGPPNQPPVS
Readout: Kd

[[record]]
binder = "KYPAY [functional peptide KYPAY (K5)]"
readout = "Kd"
reported_measurement = "12.5 µM"

